L-lactate dehydrogenase A chain (Homo sapiens): recorded IC50 for assorted molecules

| molecule | result |
| --- | --- |
| NS(=O)(=O)c1ccc(Cc2cn(-c3nc(C(=O)O)cs3)nc2-c2ccc(F)c(-c3ccccc3)c2)cc1 [US10961200, Compound 515] | < 100 nM |

# next molecule below
Problem: Sample CC(C)Oc1cccc(-c2nn(-c3nc(C(=O)O)cs3)c(CC3CC3)c2Cc2ccc(S(N)(=O)=O)cc2)c1 [US10961200, Compound 504] — what was its IC50?
Solution: < 100 nM
